Where do the numbers come from? From patent US20190202907A1.

Target: T1, human ST2L (human, UniProt Q01638 19-328, limits assumed)
T1 construct: also called IL-1R4; IL-33Ra
T1 sequence (looked up): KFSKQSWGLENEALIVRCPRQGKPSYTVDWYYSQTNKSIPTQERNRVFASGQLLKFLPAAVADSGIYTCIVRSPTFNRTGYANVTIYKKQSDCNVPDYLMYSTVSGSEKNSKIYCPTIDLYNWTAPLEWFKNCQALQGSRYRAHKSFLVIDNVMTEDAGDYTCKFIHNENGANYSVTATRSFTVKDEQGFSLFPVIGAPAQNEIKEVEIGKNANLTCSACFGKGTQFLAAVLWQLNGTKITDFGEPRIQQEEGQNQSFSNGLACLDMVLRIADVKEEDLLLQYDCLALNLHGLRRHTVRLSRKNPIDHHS
Test: affinity table; method not stated
assay metric: kon (M⁻¹ s⁻¹)
Supply the numeric figure in M⁻¹ s⁻¹, leaving out any unit text.

Using known records, supply kon for STLM232 (antibody, from another filing, V domains shown) VH: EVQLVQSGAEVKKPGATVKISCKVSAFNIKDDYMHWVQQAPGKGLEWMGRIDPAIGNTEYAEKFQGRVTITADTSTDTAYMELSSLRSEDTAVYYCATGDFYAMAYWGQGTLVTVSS VL: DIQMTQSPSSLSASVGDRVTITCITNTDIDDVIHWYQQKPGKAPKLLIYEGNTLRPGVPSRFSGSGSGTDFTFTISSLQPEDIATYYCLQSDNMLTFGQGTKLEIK
1.78e+07

Using known records, supply kon for STLM214 (antibody, from another filing, V domains shown) VH: EVQLLESGGGLVQPGGSLRLSCAASGFTFSSYDMFWVRQAPGKGLEWVSDIKGEGGRTAYADSVKGRFTISRDNSKNTLYLQMNSLRAEDTAVYYCARDPWSTEGSFFVLDYWGQGTLVTVSS VL: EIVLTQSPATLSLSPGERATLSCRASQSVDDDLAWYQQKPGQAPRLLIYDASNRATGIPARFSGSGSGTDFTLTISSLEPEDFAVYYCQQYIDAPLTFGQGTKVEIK
9.16e+06

Using known records, supply kon for STLM231 (antibody, from another filing, V domains shown) VH: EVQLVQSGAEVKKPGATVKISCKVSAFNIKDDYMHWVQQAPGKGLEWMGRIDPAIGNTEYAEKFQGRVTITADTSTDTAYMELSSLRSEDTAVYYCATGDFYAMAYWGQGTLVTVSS VL: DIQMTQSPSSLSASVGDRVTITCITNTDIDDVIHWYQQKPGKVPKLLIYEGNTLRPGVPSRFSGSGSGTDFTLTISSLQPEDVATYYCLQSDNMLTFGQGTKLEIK
1.97e+07
